Provenance of the data: PubChem BioAssay AID1159580

test-summary: chemical genetic growth profiling, strain panel (AID 1159580);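 further: tested at 20 µM; growth read once vehicle control cultures reached saturation at 30 °C; 1 = growth at the plate median or of vehicle wells; lower values mean less growth of the strain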
recorded-conditions: S. cerevisiae deletion strains, growth OD, locus YPL240C, strain hsp82, hits give low values
In all, about 5,500 compounds went through this assay and about 2,000 (36%) were called active. Not shown: some 18% with an inconclusive outcome. The list shows a part of the results.
Catalogue of normalized growth values
property-measured: normalized growth

{"columns": ["compound", "property-measured", "test-value"],
 "data": [
  ["CCCCNC(=O)NS(=O)(=O)c1ccc(C)cc1", "normalized growth", 1],
  ["C[C@@H]1CC(Cl)CC[C@H]1C(=O)OC(C)(C)C (stereo partly drawn)", "normalized growth", 0.982],
  ["O=S(=O)(O)c1cc(N=C=S)ccc1/C=C/c1ccc(N=C=S)cc1S(=O)(=O)O", "normalized growth", 1.03]
]}
